Numbers sourced from patent US11098042B2.

system: virus H1N1 A/Weiss/43; assay: microbe, parasite or virus in culture; type: cell-based; conditions: Influenza A virus, 120 h; inhibition of CPE of H1N1 A/Weiss/43 in MDCK cells, 5 days, CCK-8
EC50: recorded values
Note: unit pM is implicit; provide only the numeric part.

// known answers, use as guide
1) O=C(O)C1C2CCC(CC2)C1Nc1cc(-c2cccs2)nc(-c2n[nH]c3ncc(Cl)cc23)n1 (racemic); 203
2) CC(C)n1ccc2c(N[C@H]3C4CCC(CC4)[C@@H]3C(=O)O)nc(-c3n[nH]c4ncc(F)cc34)nc21; 227
3) O=C(O)C1C2CCC(CC2)C1Nc1cc(-c2ccc3ccccc3c2)nc(-c2n[nH]c3ncc(Cl)cc23)n1 (racemic); 513

Now consider a different compound.
// EC50 lookup, key: Cn1ccc2c(NC3C4CCC(CC4)C3C(=O)O)nc(-c3n[nH]c4ncc(Cl)cc34)nc21 (racemic)
390

----------
test system: virus H1N1 A/Weiss/43; assay: microbe, parasite or virus in culture; type: cell-based; settings: Influenza A virus, 120 h; inhibition of CPE of H1N1 A/Weiss/43 in MDCK cells, 5 days, CCK-8
Could you please mark criterion met for values of EC50 below 0.3 nM and criterion not met for values at or above it?

Does this compound meet the criterion EC50 < 0.3 nM? CC(C)(C)[C@@H](CC(=O)O)Nc1nc(-c2n[nH]c3ncc(Cl)cc23)nc(-c2ccco2)c1F
criterion met

Try O=C(O)C1C2CCC(CC2)C1Nc1cc(-c2ccccc2)nc(-c2n[nH]c3ncc(Cl)cc23)n1 (racemic) next.
criterion met

And the next one, O=C(O)C1C2CCC(CC2)C1Nc1nc(-c2n[nH]c3ncc(Cl)cc23)nc(-c2ccco2)c1F (racemic) ?
criterion met

Another compound to check: O=C(O)C1C2CCC(CC2)C1Nc1cc(-c2cc3ccccc3o2)nc(-c2n[nH]c3ncc(Cl)cc23)n1 (racemic)
criterion not met

Repeat for the following compound: O=C(O)C1C2CCC(CC2)C1Nc1cc(-c2ccco2)nc(-c2n[nH]c3ncc(Cl)cc23)n1 (racemic)
criterion met

Same for O=C(O)C1C2CCC(CC2)C1Nc1cc(C2CC2)nc(-c2n[nH]c3ncc(Cl)cc23)n1 (racemic)
criterion not met

----------
experiment: in vivo; conditions: Sprague-Dawley (SD), rat, po, 5 mg/kg
experimentalReadout: AUC(0-inf) (ng·h/mL)
Respond with the bare value in ng·h/mL.

Given the entry O=C(O)C1C2CCC(CC2)C1Nc1nc(-c2n[nH]c3ncc(Cl)cc23)nc(-c2ccco2)c1F (racemic) , report its measured AUC(0-inf).
1060

----------
assay: in vivo; conditions: Sprague-Dawley (SD), rat, po, 5 mg/kg
experimentalReadout: AUC(0-t) (ng·h/mL)
Supply the numeric figure in ng·h/mL, leaving out any unit text.

Value lookup for AUC(0-t); key = O=C(O)C1C2CCC(CC2)C1Nc1nc(-c2n[nH]c3ncc(Cl)cc23)nc(-c2ccco2)c1F (racemic)
1060

----------
assay: in vivo; settings: Sprague-Dawley (SD), rat, iv, 1 mg/kg
experimentalReadout: clearance (mL/min/kg)
Express it in mL/min/kg; write the number only.

# clearance lookup, item O=C(O)C1C2CCC(CC2)C1Nc1nc(-c2n[nH]c3ncc(Cl)cc23)nc(-c2ccco2)c1F (racemic)
18.5
